Reference source for all entries: ChEMBL document CHEMBL1201862

test system: SR; experiment: NCI tumour cell line growth inhibition, 48 h
Calls of active or inactive are those of the source. Rule as the data show it: active = GI50 up to about 1.1 µM and inactive = higher.
Readout Kind: GI50

Examples from the recorded data:
[
  {
    "Compound": "COc1ccccc1N1C(=O)/C(=C\\c2cccc(Oc3ccccc3)c2)S(=O)(=O)C1c1ccccc1 (stereo not drawn)",
    "GI50": "16.7 µM (inactive)"
  },
  {
    "Compound": "COc1ccc(C(c2ccccc2)N2C(=O)CCC2C(=O)O)cc1OC (stereo not drawn)",
    "GI50": "> 100 µM (inactive)"
  },
  {
    "Compound": "O=C(O)C(C(C(=O)O)P(=O)(O)O)P(=O)(O)O (stereo not drawn)",
    "GI50": "> 100 µM (inactive)"
  },
  {
    "Compound": "COc1ccc2cc(CNCCCCCCCCCCCCNCc3ccc4cc(OC)ccc4c3)ccc2c1",
    "GI50": "1.79 µM (inactive)"
  },
  {
    "Compound": "CC[C@@H]1/C=C/C=C/C[C@H](C)[C@@H](O)[C@@H](C)C(=O)[C@H](C)[C@@H](O)[C@H](C)C(=O)[C@H](C)[C@@H](O)[C@H](C)/C=C/C(=O)O[C@H]2[C@@H](C)[C@@H](CC1)O[C@@]1(CC[C@@H](C)[C@@H](CC(C)O)O1)[C@@H]2C (stereo partly drawn)",
    "GI50": "3.01 µM (inactive)"
  },
  {
    "Compound": "CCOC(=O)/C=C/CCC(C)(C)COC(C)=O",
    "GI50": "> 10 µM (inactive)"
  }
]

Given item Cc1cc2nc3c(C#N)c(C)c(CCCl)c(Cl)n3c2cc1C , the value recorded as its GI50 is 2.29 µM (inactive)

Fc1ccc2c3c([nH]c2c1)CCN(Cc1ccccc1)C3 has a reported GI50 of 18.3 µM (inactive)
